Each recorded value in this set is attributed to the MegaScale stability set (Tsuboyama et al. 2023).

B1: EHEE_rd2_0191 (parent)
chain: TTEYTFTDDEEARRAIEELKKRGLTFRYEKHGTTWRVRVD

Variants of: B1
Protocol Summary: folding stability dG (cDNA display proteolysis); higher = more stable
Cond: PBS, room temperature
Readout: folding stability dG (kcal/mol)
Express your answer in kcal/mol, writing the number without its unit.

1. H31Y: 2.04

Entry under test: T7A . Its folding stability dG was 1.63

Entry under test: E10Y . Its folding stability dG was 1.96

Entry under test: A15G . Its folding stability dG was 1.06
